Values from patent US20060257938A1

- PROTOCOL NOTES: Probe fluorescence ratio response to arachidonic acid relative to ADIFAB2
- Assay type: binding
- STATED CONDITIONS: Table 5; Arachidonic acid
MEASURED ATTRIBUTE: ΔR/DRAΔ2 AA
Numbers only.

Need ΔR/DRAΔ2 AA, item L2P22H10: FABP probe, substitutions M18I F55G A73M vs SEQ ID NO: 2 (protein, listed as Rattus norvegicus, PEPTIDE (1)...(131) wild-type rat intestinal fatty acid binding protein) AFDGTWKVDRNENYEKFIEKMGINVVKRKLGAHDNLKLTITQEGNKFTVKESSNGRNIDVVFELGVDFAYSLMDGTELTGTWTMEGNKLVGKFKRVDNGKELIAVREISGNELIQTYTYEGVEAKRIFKKE 0.9
